All values here come from patent US20260356846A1.

Provide the reported EC50 of each item.
Test system: STMN2 (TDP-mut (N352S) STMN2-NLuc SH-SY5Y cells)
assay overview: STMN2 nanoluciferase assay in TDP-43 mutant SH-SY5Y cells (Table A: mut TDP-43; Table B: mut HD Luciferase)
Format: cell-based, human
experimental conditions: Homo sapiens, SH-SY5Y, Table B; mutant TDP-43 cell line; read-out: EC50, mut HD Luciferase

O=C(O)C[C@H](O)C[C@H](O)/C=C/c1c(-c2ccc(F)cc2Cl)cc(C2CC2)nc1C1CC1 [II-8] yielded EC50 of 10 to 50 nM

COCc1c(C2CC2)nc(C2CC2)c(/C=C/[C@@H](O)C[C@@H](O)CC(=O)O)c1-c1ccc(F)cc1C [II-10] yielded EC50 of ≤ 10 nM

Cc1nc2c(-c3ccc(F)cc3)c(/C=C/[C@@H](O)C[C@@H](O)CC(=O)O)c(C3CC3)cc2s1 [Example I-7] yielded EC50 of 100 to 500 nM

O=C(O)C[C@H](O)C[C@H](O)/C=C/c1c(C2CC2)cc2scnc2c1-c1ccc(F)cc1 [Example I-9] yielded EC50 of ≥ 500 nM

Cc1cc(F)ccc1-c1cc(C23CC(C2)C3)nc(C2CC2)c1/C=C/[C@@H](O)C[C@@H](O)CC(=O)O [II-14] yielded EC50 of 100 to 500 nM

Cc1cc2nc(C3CC3)c(/C=C/[C@@H](O)C[C@@H](O)CC(=O)O)c(-c3ccc(F)cc3)c2s1 [Example I-6] yielded EC50 of 10 to 50 nM

Cc1nc2cc(C3CC3)c(/C=C/[C@@H](O)C[C@@H](O)CC(=O)O)c(-c3ccc(F)cc3)c2s1 [Example I-8] yielded EC50 of 10 to 50 nM

---

Provide the reported EC50 of each item.
Test system: STMN2 (TDP-mut (N352S) STMN2-NLuc SH-SY5Y cells)
assay overview: STMN2 nanoluciferase assay in TDP-43 mutant SH-SY5Y cells (Table A: mut TDP-43; Table B: mut HD Luciferase)
Assay type: cell-based, human
experimental conditions: Homo sapiens, SH-SY5Y, Table B; mutant TDP-43 cell line; read-out: EC50, mut HD Luciferase

Cc1csc2nc(C3CC3)c(/C=C/[C@@H](O)C[C@@H](O)CC(=O)O)c(-c3ccc(F)cc3)c12 [Example I-10] yielded EC50 of 10 to 50 nM

Cc1csc2c(-c3ccc(F)cc3)c(/C=C/[C@@H](O)C[C@@H](O)CC(=O)O)c(C3CC3)nc12 [Example I-1] yielded EC50 of ≤ 10 nM

COCc1c(C2CCC2)nc(C2CCC2)c(/C=C/[C@@H](O)C[C@@H](O)CC(=O)O)c1-c1ccc(F)cc1Cl [II-3] yielded EC50 of 100 to 500 nM

O=C(O)C[C@H](O)C[C@H](O)/C=C/c1c(C2CC2)nc2scnc2c1-c1ccc(F)cc1 [Example I-2] yielded EC50 of ≥ 500 nM

COCc1c(C2CC2)nc(C2CC2)c(/C=C/[C@@H](O)C[C@@H](O)CC(=O)O)c1-c1cc(F)ccc1C [II-24] yielded EC50 of 10 to 50 nM

Cc1csc2nc(C3CC3)c(/C=C/[C@@H](O)C[C@@H](O)CC(=O)O)c(-c3ccc(Cl)cc3)c12 [Example I-34] yielded EC50 of 50 to 100 nM

COCc1c(C2CC2)nc(C2CC2)c(/C=C/[C@@H](O)C[C@@H](O)CC(=O)O)c1-c1cc(Cl)ccc1F [II-20] yielded EC50 of 10 to 50 nM

---

Tested on: STMN2 (TDP-mut (N352S) STMN2-NLuc SH-SY5Y cells)
assay overview: STMN2 nanoluciferase assay in TDP-43 mutant SH-SY5Y cells (Table A: mut TDP-43; Table B: mut HD Luciferase)
Type: cell-based, human
experimental conditions: Homo sapiens, SH-SY5Y, Table B; mutant TDP-43 cell line; read-out: EC50, mut HD Luciferase
Provide the reported EC50 of each item.

Known value: STMN2 (TDP-mut (N352S) STMN2-NLuc SH-SY5Y cells) EC50 of the compound `Cc1csc2c(-c3ccc(F)cc3Cl)c(/C=C/[C@@H](O)C[C@@H](O)CC(=O)O)c(C3CC3)nc12` equals 10 to 50 nM

Known value: STMN2 (TDP-mut (N352S) STMN2-NLuc SH-SY5Y cells) EC50 of the compound `COCc1c(C2CC2)nc(C2CC2)c(/C=C/[C@@H](O)C[C@@H](O)CC(=O)O)c1-c1c(F)cccc1Cl` equals 10 to 50 nM

Known value: STMN2 (TDP-mut (N352S) STMN2-NLuc SH-SY5Y cells) EC50 of the compound `COCc1c(C2CCC2)nc(C2CC2)c(/C=C/[C@@H](O)C[C@@H](O)CC(=O)O)c1-c1ccc(F)cc1` equals ≤ 10 nM

Known value: STMN2 (TDP-mut (N352S) STMN2-NLuc SH-SY5Y cells) EC50 of the compound `COCc1c(C2CC2)nc(C2CC2)c(/C=C/[C@@H](O)C[C@@H](O)CC(=O)O)c1-c1c(C)cccc1F` equals 10 to 50 nM

Known value: STMN2 (TDP-mut (N352S) STMN2-NLuc SH-SY5Y cells) EC50 of the compound `O=C(O)C[C@H](O)C[C@H](O)/C=C/c1c(C2CC2)cc2ncsc2c1-c1ccc(F)cc1` equals 10 to 50 nM

Known value: STMN2 (TDP-mut (N352S) STMN2-NLuc SH-SY5Y cells) EC50 of the compound `COCc1c(C2CCC2)nc(C2CCC2)c(/C=C/[C@@H](O)C[C@@H](O)CC(=O)O)c1-c1ccc(F)cc1` equals 10 to 50 nM

Known value: STMN2 (TDP-mut (N352S) STMN2-NLuc SH-SY5Y cells) EC50 of the compound `COCc1c(C23CC(C2)C3)nc(C2CC2)c(/C=C/[C@@H](O)C[C@@H](O)CC(=O)O)c1-c1ccc(F)cc1` equals ≤ 10 nM

Known value: STMN2 (TDP-mut (N352S) STMN2-NLuc SH-SY5Y cells) EC50 of the compound `O=C(O)C[C@H](O)C[C@H](O)/C=C/c1c(-c2ccc(F)cc2Cl)cc(C2CCC2)nc1C1CC1` equals 50 to 100 nM

Known value: STMN2 (TDP-mut (N352S) STMN2-NLuc SH-SY5Y cells) EC50 of the compound `Cc1csc2c(-c3ccc(F)cc3)c(CC[C@H](O)C[C@@H](O)CC(=O)O)c(C3CC3)nc12` equals 100 to 500 nM

Known value: STMN2 (TDP-mut (N352S) STMN2-NLuc SH-SY5Y cells) EC50 of the compound `COCc1c(C2CC2)nc(C)c(/C=C/[C@@H](O)C[C@@H](O)CC(=O)O)c1-c1ccc(F)cc1C` equals ≥ 500 nM

Known value: STMN2 (TDP-mut (N352S) STMN2-NLuc SH-SY5Y cells) EC50 of the compound `COCc1c(C2CC2)nc(C2CC2)c(/C=C/[C@@H](O)C[C@@H](O)CC(=O)O)c1-c1ccc(F)cc1Cl` equals ≤ 10 nM

Known value: STMN2 (TDP-mut (N352S) STMN2-NLuc SH-SY5Y cells) EC50 of the compound `O=C(O)C[C@H](O)C[C@H](O)/C=C/c1c(-c2ccc(F)cc2)cc(C23CC(C2)C3)nc1C1CC1` equals 100 to 500 nM

Known value: STMN2 (TDP-mut (N352S) STMN2-NLuc SH-SY5Y cells) EC50 of the compound `Cc1nc2c(-c3ccc(F)cc3)c(/C=C/[C@@H](O)C[C@@H](O)CC(=O)O)c(C3CC3)nc2s1` equals ≥ 500 nM

Known value: STMN2 (TDP-mut (N352S) STMN2-NLuc SH-SY5Y cells) EC50 of the compound `COCc1c(C23CC(C2)C3)nc(C2CC2)c(/C=C/[C@@H](O)C[C@@H](O)CC(=O)O)c1-c1ccc(F)cc1Cl` equals 10 to 50 nM

Known value: STMN2 (TDP-mut (N352S) STMN2-NLuc SH-SY5Y cells) EC50 of the compound `Cc1csc2c(-c3ccc(F)cc3)c(/C=C/[C@@H](O)C[C@@H](O)CC(=O)N(C)C)c(C3CC3)nc12` equals ≥ 500 nM

---

Tested on: STMN2 (TDP-mut (N352S) STMN2-NLuc SH-SY5Y cells)
assay overview: STMN2 nanoluciferase assay in TDP-43 mutant SH-SY5Y cells (Table A: mut TDP-43; Table B: mut HD Luciferase)
Assay type: cell-based, human
experimental conditions: Homo sapiens, SH-SY5Y, Table B; mutant TDP-43 cell line; read-out: EC50, mut HD Luciferase
measurement kind: EC50

`COCc1c(C2CC2)nc(C2CC2)c(/C=C/[C@@H](O)C[C@@H](O)CC(=O)O)c1-c1ccc(Cl)cc1F` yielded EC50 of 10 to 50 nM

`O=C(O)C[C@H](O)C[C@H](O)/C=C/c1c(-c2ccc(F)cc2Cl)cc(C2CC2)nc1C1CCC1` yielded EC50 of ≥ 500 nM

`COCc1c(C2CCC2)nc(C2CC2)c(/C=C/[C@@H](O)C[C@@H](O)CC(=O)O)c1-c1ccc(F)cc1Cl` yielded EC50 of ≤ 10 nM

`O=C(O)C[C@H](O)C[C@H](O)/C=C/c1c(C2CC2)nc2ccsc2c1-c1ccc(F)cc1` yielded EC50 of 10 to 50 nM

`COCc1c(C2CC2)nc(C2CC2)c(/C=C/[C@@H](O)C[C@@H](O)CC(=O)O)c1-c1cc(F)ccc1Cl` yielded EC50 of 10 to 50 nM

`O=C(O)C[C@H](O)C[C@H](O)/C=C/c1c(C2CC2)nc(C2CC2)c(COC2CC2)c1-c1ccc(Cl)cc1F` yielded EC50 of 10 to 50 nM

`O=C(O)C[C@H](O)C[C@H](O)/C=C/c1c(C2CC2)nc2c(C3CC3)csc2c1-c1ccc(F)cc1` yielded EC50 of 10 to 50 nM

`Cc1cc(F)ccc1-c1cc(C2CC2)nc(C2CC2)c1/C=C/[C@@H](O)C[C@@H](O)CC(=O)O` yielded EC50 of ≤ 10 nM

`COCc1c(C2CC2)nc(C2CC2)c(/C=C/[C@@H](O)C[C@@H](O)CC(=O)O)c1-c1c(C)cc(F)cc1F` yielded EC50 of ≤ 10 nM

`COCc1c(C2CC2)nc(C2CC2)c(/C=C/[C@@H](O)C[C@@H](O)CC(=O)O)c1-c1c(F)cc(F)cc1Cl` yielded EC50 of ≤ 10 nM

`COCc1c(C2CC2)nc(C2CC2)c(/C=C/[C@@H](O)C[C@@H](O)CC(=O)O)c1-c1ccccc1Cl` yielded EC50 of 10 to 50 nM

`Cc1cc(F)ccc1-c1c(/C=C/[C@@H](O)C[C@@H](O)CC(=O)O)c(C2CC2)nc2c(C)csc12` yielded EC50 of 10 to 50 nM
